# experiment-notes: Phase I clinical pharmacokinetics of ribociclib (study CLEE011X2101)
# measurement-context: human, in vivo, po, 400 mg
readout-name: Tmax (h)
Give the value, in units of h, as a plain number.

query: Please look at this molecule and report its Tmax: CN(C)C(=O)c1cc2cnc(Nc3ccc(N4CCNCC4)cn3)nc2n1C1CCCC1 [Ribociclib, ribociclib]
result: 4
